Listed here are sequences together with their documented binding signal.
# Tested On: OsSMF1 (Oryza sativa, UniProt Q6ZLB0 1-436)
# Sequence: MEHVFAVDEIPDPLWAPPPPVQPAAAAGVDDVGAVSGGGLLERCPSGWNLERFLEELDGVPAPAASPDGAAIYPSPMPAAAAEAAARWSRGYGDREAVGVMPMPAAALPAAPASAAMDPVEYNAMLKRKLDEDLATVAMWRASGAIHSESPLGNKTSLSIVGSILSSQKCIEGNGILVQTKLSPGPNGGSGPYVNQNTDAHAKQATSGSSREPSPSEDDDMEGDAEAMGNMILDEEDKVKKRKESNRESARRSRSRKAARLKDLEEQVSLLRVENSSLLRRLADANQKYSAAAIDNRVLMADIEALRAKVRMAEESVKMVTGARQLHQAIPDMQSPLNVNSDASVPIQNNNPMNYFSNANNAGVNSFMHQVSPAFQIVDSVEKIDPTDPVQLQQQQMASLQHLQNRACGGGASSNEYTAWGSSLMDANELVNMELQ
# Assay Info: protein-binding microarray (RPBM); PBS, 2% BSA, 51.3 ng/ul salmon testes DNA, 50 uM zinc acetate, 200 nM TF, 25 C, 1 h; high values mean tight binding
# Experimental Setup: protein: recombinant; tags: N-terminal polyhistidine and DsRed monomer fusion (pET32a); chain copies: 2; label: CyDye5-dUTP incorporated in the synthesized complementary strand; 3' TTTTT single-stranded linker to array surface; dsDNA, one strand shown
The full ranking holds about 39,000 sequences; the median of “fluorescence intensity (a.u.)” is about 4,300, and the highest 2% start at about 39,000. The list comes from a sample in which the highest values are over-represented; it also holds close analogues and randomly drawn sequences.

Reference set, count: 5
>>> df
                             input_sequence                                 tested_on   property_name                 reported_measurement
0  ACACTCCAGCATAGTTAATGTTTACTGCTAGGAGGATTCACGGAGTCACCTAGTGCAG  OsSMF1 (Oryza sativa, UniProt Q6ZLB0 1-436)  binding signal  25600 fluorescence intensity (a.u.)
1  TCACATGATGTCTTGGATGTTGTGTAGAAATTCTCTTTCCCGGAGTCACCTAGTGCAG  OsSMF1 (Oryza sativa, UniProt Q6ZLB0 1-436)  binding signal   3560 fluorescence intensity (a.u.)
2  CTACACACGAGACGTGCAAACCTGCAGATTTTGTTACTTGCGGAGTCACCTAGTGCAG  OsSMF1 (Oryza sativa, UniProt Q6ZLB0 1-436)  binding signal   4830 fluorescence intensity (a.u.)
3  TCTTGATGATGTGGAGTTTATGGAAACTATGTCTAGTGTTCGGAGTCACCTAGTGCAG  OsSMF1 (Oryza sativa, UniProt Q6ZLB0 1-436)  binding signal   7560 fluorescence intensity (a.u.)
4  GATTGATGAGGCCGCAAAGCCTGGCTGCCTGCCTGCTTCTCGGAGTCACCTAGTGCAG  OsSMF1 (Oryza sativa, UniProt Q6ZLB0 1-436)  binding signal  54300 fluorescence intensity (a.u.)

Continue with the next sequence.
Query: Give recorded binding signal. `GGGGTTAGTCGCCGGAGGTGTGGCGTGTCGACACGTACGCCGGAGTCACCTAGTGCAG`
Response: 8720 fluorescence intensity (a.u.)
